Numbers sourced from paper PMC3792958.

Target: ABCB1 (Homo sapiens)
Assay: Cellular monolayer transport assay, MDCKII-ABCB1 cells
Conditions: human, MDCK-MDR1
observable: efflux ratio at 2 h, 10 µM
Simply state the number, no unit and no words.

Reported efflux ratio at 2 h, 10 µM ( CC[C@H](CO)Nc1nc(NCc2ccccc2O)c2ncn(C(C)C)c2n1 ) = 2.51

###

Biological target: ABCB1 (Homo sapiens, UniProt P08183)
Sequence (P08183 whole entry): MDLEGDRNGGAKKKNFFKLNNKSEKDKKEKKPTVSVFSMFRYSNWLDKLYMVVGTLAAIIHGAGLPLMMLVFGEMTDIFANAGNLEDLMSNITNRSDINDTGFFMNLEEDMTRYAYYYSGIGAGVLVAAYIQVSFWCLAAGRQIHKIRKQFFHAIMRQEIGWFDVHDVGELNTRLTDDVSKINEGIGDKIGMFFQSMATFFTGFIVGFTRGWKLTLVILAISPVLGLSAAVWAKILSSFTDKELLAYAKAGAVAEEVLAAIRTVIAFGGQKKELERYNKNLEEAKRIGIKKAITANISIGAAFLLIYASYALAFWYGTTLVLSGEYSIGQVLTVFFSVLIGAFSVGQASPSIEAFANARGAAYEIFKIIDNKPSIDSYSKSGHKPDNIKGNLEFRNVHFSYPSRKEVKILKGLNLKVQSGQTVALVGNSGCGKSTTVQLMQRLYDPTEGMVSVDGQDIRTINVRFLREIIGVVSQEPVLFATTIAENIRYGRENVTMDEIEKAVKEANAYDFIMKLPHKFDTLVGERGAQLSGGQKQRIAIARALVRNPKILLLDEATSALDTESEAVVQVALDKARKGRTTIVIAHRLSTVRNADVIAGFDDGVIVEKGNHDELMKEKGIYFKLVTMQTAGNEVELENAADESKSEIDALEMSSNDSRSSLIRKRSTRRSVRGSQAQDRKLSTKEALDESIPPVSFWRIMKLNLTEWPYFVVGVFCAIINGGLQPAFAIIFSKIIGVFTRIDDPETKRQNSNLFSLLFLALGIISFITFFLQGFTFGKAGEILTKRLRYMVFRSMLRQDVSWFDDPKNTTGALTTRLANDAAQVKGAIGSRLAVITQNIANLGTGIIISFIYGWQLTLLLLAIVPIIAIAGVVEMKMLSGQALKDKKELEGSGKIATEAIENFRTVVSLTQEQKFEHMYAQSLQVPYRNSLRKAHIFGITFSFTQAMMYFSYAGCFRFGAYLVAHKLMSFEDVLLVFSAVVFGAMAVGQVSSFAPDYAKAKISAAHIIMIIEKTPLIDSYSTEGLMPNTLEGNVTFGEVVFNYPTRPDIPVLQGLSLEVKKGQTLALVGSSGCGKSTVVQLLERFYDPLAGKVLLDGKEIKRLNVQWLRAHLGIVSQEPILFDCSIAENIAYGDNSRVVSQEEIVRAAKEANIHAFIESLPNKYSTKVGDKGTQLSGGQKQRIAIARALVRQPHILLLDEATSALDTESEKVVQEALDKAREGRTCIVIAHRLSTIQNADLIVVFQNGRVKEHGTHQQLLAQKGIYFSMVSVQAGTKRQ
Assay: in vitro
Settings: human, MDCK-MDR1
Method: ABCG2- and ABCB1-transduced MDCKII sublines (MDCKII-ABCG2 and MDCKII-ABCB1), which stably express ABCG2 and ABCB1 protein, respectively, were purchased from dr. Alfred Schinkeĺs lab (The Netherlands Cancer Institute, Amsterdam, The Netherlands). […] MDCKII-ABCG2, MDCKII-ABCB1 or MDCKII-par cells were seeded at a density of 1×10^6 per insert 72 h before experiment. […] Concentration of CDKi was determined via HPLC/MS analysis. […]
observable: efflux ratio at 6 h, 10 µM
Please respond with just the number, no unit label.

The recorded efflux ratio at 6 h, 10 µM for CC(C)[C@H](CO)Nc1nc(Nc2cccc(Cl)c2)c2ncn(C(C)C)c2n1 is 1.26
